Data origin: paper PMC12305662

Target Under Test: UniProt P9WPP1
Sequence (P9WPP1 whole entry): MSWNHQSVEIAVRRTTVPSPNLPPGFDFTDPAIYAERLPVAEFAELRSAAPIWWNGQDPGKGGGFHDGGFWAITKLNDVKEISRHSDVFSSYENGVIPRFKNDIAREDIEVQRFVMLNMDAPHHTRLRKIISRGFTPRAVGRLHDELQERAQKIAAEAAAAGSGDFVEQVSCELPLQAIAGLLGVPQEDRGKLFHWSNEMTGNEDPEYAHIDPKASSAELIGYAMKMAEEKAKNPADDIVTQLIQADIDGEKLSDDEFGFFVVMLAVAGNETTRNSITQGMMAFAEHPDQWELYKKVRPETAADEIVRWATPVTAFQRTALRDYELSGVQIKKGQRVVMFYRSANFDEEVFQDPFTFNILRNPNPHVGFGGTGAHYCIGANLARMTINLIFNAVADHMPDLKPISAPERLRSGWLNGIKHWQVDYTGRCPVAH
Assay type: binding
Details: fragment 1 mM, P450 4-6 µM; Soret shift relative to DMSO (393 nm)
Observation Type: Δλmax (nm) CYP125, fragment screen
Numbers only, in nm.

For orientation, consider the following solved cases.
Smiles Code	Δλmax (nm) CYP125, fragment screen
OCc1ccc(Cn2cncn2)cc1	0
Clc1nccc2ccccc12	0

Record Δλmax (nm) CYP125, fragment screen per entry; entries follow.
1. Nc1cccc(Cn2cncn2)c1
2. O=C(O)c1ccc(-n2cccn2)cc1
3. Nc1ccc(Oc2ccccc2)nc1

Reply:
[0, 0, 0]

###

Target Under Test: CYP126 (Mycobacterium tuberculosis, UniProt P9WPN9)
Sequence (P9WPN9 whole entry, the tested form may be a part): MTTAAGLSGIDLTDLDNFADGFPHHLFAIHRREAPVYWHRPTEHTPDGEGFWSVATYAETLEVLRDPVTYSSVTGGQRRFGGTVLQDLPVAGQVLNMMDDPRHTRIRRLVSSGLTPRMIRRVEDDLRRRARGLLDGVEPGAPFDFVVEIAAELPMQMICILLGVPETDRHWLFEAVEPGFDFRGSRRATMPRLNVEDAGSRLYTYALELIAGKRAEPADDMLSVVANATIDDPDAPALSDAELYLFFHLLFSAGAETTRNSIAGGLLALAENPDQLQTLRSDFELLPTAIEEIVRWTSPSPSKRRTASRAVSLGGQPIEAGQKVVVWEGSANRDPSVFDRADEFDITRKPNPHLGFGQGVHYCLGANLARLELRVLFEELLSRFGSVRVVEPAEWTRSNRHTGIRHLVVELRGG
Details: fragment 1 mM, P450 4-6 µM; relative to DMSO (418 nm)
Observation Type: Δλmax (nm) CYP126, fragment screen
# answer = value followed by unit

Smiles Code	Δλmax (nm) CYP126, fragment screen
O=C(O)CCc1ccccc1	2 nm
CNCc1ccc(-c2ccncc2)cc1	0 nm
Cc1ccc(S(N)(=O)=O)nc1	0 nm
O=C(O)[C@@H]1Cc2ccccc2CN1	0 nm
Nc1ccc(Oc2ccccc2)nc1	2 nm

For each entry beneath this line, provide reported Δλmax (nm) CYP126, fragment screen.
1. O=C(O)c1ccnn1-c1ccccc1
2. O=C(O)c1ccnnc1
3. COc1ccc(C(C)=O)cn1

Reply:
["0 nm", "0 nm", "0 nm"]

###

Test system: Mtb H37Rv
Experiment Description: Extracellular Mtb growth on cholesterol, MABA MIC99
Format: cell-based, Mycobacterium tuberculosis
Details: Mycobacterium tuberculosis, H37RV, 336 h; cholesterol as sole carbon source; 2 weeks post-compound treatment; read-out: MABA-MIC99 (W2) H37Rv, cholesterol
Give measured MIC99 for each item. Keep answers brief.
Numbers only, in µM.

Below, 4 compounds whose answers are already recorded.
Smiles Code	Recorded Value
CS(=O)(=O)c1cccc(CNc2ccc(Cc3ccncc3)cc2)c1	13
C[C@@H](NC(=O)c1cccc(Cc2ccncc2)c1)c1ccccc1	25
COc1ccc(CNc2ccc(N(C)c3ccncc3)cc2)cc1	50
O=S(=O)(Nc1ccc(Cc2ccncc2)cc1)c1ccccc1	50

In the following, a different compound is considered.
The compound listed as O=S(=O)(Nc1ccc(Cc2ccncc2)cc1)c1ccc(OC(F)(F)F)cc1 has a reported MIC99 of 25

###

Target Under Test: CYP124 (Mycobacterium tuberculosis)
Sequence (P9WPP3 whole entry, the tested form may be a part): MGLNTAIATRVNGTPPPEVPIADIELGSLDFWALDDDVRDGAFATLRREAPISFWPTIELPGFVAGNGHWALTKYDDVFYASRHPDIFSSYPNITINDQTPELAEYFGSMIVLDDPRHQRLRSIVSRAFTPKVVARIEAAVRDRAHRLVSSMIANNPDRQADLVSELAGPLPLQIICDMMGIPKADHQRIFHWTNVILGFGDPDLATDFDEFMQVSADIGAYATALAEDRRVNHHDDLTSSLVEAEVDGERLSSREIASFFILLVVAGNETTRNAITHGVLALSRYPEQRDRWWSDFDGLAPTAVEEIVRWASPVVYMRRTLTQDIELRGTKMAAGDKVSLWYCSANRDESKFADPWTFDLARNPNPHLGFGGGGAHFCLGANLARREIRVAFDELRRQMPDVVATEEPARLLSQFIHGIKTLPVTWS
Details: fragment 1 mM, P450 4-6 µM; relative to DMSO (419 nm)
Observation Type: Δλmax (nm) CYP124, fragment screen

Before answering, review these 4 worked examples.
Smiles Code	Δλmax (nm) CYP124, fragment screen
Nc1ccc(Oc2ccccc2)nc1	-1 nm
Cc1[nH]ncc1-c1ccccc1	3 nm
COC(=O)c1cc2ccccc2cn1	0 nm
NC1=NN(c2ccccc2)C(=O)C1	-1 nm

State the recorded Δλmax (nm) CYP124, fragment screen for every item in the following list.
1. OCc1ccc(-c2ccncc2)cc1
2. Clc1nccc2ccccc12
3. O=c1ccc(Br)c[nH]1
4. O=C(O)c1ccnnc1

Reply:
["1 nm", "0 nm", "0 nm", "0 nm"]

Please give Δλmax (nm) CYP124, fragment screen, item by item, for the list that follows.
1. OCc1nccn1Cc1ccccc1
2. COC(=O)c1ccnc(N)c1
3. Clc1nccc2ccc(Br)cc12
4. Cc1cc(C(=O)O)[nH]n1

Reply:
1: 1 nm; 2: 0 nm; 3: 0 nm; 4: 0 nm

Batch request: Δλmax (nm) CYP124, fragment screen per item, same order as input.
1. O=C(O)c1ccccc1-n1cccn1
2. Nc1ccc(-n2cccn2)cc1

Reply:
1: 0 nm; 2: 0 nm

Please supply Δλmax (nm) CYP124, fragment screen for each of the following items, keeping them in order.
1. CC(C)c1cc(C(=O)O)[nH]n1
2. Oc1cccnc1O
3. C#Cc1cccnc1
4. O=C(O)c1ccc(-n2cccn2)cc1
5. Nc1ccncc1

Reply:
1: 0 nm; 2: -1 nm; 3: 0 nm; 4: 0 nm; 5: 0 nm

Hi team, please reply with Δλmax (nm) CYP124, fragment screen for each item in this list.
1. O=C(O)c1cncc(F)c1
2. Nc1ccccn1
3. O=C(O)c1ccnn1-c1ccccc1
4. COc1ncccc1N
5. OB(O)c1ccccc1
6. O=C(O)c1cccc(-c2cccnc2)c1

Reply:
1: 0 nm; 2: 0 nm; 3: 0 nm; 4: 0 nm; 5: 0 nm; 6: 0 nm

Here are 2 compounds. What values of Δλmax (nm) CYP124, fragment screen were reported for them?
1. Nc1cccnc1N
2. Clc1ncccc1Br

Reply:
["0 nm", "0 nm"]

###

Target Under Test: UniProt P9WPP1
Experiment Description: LC-MS substrate turnover assay (cholest-4-en-3-one)
Assay type: biochemical
Details: estimated by Cheng-Prusoff, cholest-4-en-3-one Km CYP125 = 2.1 µM; read-out: CYP125A1 KI
Observation Type: Ki (µM)
Give bare numbers, in µM.

Smiles Code	Result Units	Ki
COc1ccc(CNc2cccc(Cc3ccncc3)c2)cc1	µM	5.4
C[C@@H](NC(=O)c1ccc(Cc2ccncc2)cc1)c1ccccc1	µM	9.8

Switching to the query record.
Record O=C(NCc1ccc2[nH]ccc2c1)c1cccc(Nc2ccncc2)c1 , field Ki: 7.1

###

Test system: Mtb H37Rv
Experiment Description: Extracellular Mtb growth on cholesterol, MABA MIC99
Assay type: cell-based, Mycobacterium tuberculosis
Details: Mycobacterium tuberculosis, H37RV, 336 h; cholesterol as sole carbon source; 2 weeks post-compound treatment; read-out: MABA-MIC99 (W2) H37Rv, cholesterol
Observation Type: MIC99 (µM)
Give bare numbers, in µM.

Compound	Result Units	MIC99
COc1ccc(CNc2ccc(Cc3ccncc3)cc2)cc1 [5m]	µM	1.5
O=C(Nc1ccc(Cc2ccncc2)cc1)c1ccccc1 [5a]	µM	25

Consider now this further compound.
Memo: COc1ccc(CNc2cccc(Cc3ccncc3)c2)cc1 [5l] , reported MIC99: 19

###

Target Under Test: CYP124 (Mycobacterium tuberculosis)
Details: fragment 1 mM, P450 4-6 µM; relative to DMSO (419 nm)
For each of the compounds below, state its Δλmax (nm) CYP124, fragment screen.
Give bare numbers, in nm.

For each of the compounds below, state Δλmax (nm) CYP124, fragment screen.
1. O=S(=O)(O)c1ccccn1
2. O=C(O)c1ccc(-c2cccnc2)cc1
3. O=C1CCN(c2ccccc2)N1
4. Cc1ccc(=O)[nH]n1
5. Nc1ccc(Br)cn1
6. COc1ccc(C(C)=O)cn1
7. Cc1cc(O)nnc1O

Reply:
0
0
-1
0
0
0
0

# batch: return Δλmax (nm) CYP124, fragment screen for each of the 5 compounds below
1. Nc1ccc(Cl)nn1
2. c1ccc(Cc2cccnc2)cc1
3. CNCc1cccc(-c2ccccc2)c1
4. Nc1cc(-c2ccc(Cl)cc2)n[nH]1
5. COc1ncccc1C(=O)O

Reply:
1. 0
2. 1
3. -1
4. -1
5. 0

The reported Δλmax (nm) CYP124, fragment screen of the compound CCc1nc(C)c[nH]1 was 0

###

System: Mtb H37Rv
I'd be grateful if you could share measured IC50 for these entries.
Give bare numbers, in µM.

Molecule	Result Units	IC50
COc1ccc(C(C)Nc2ccc(Cc3ccncc3)cc2)cc1 (stereo not drawn) [5o]	µM	2.3

GET /values?item= O=S(=O)(Nc1ccc(Cc2ccncc2)cc1)c1ccccc1 [5j] &system= Mtb H37Rv returns IC50: 19

###

Exercise: state measured IC50 for each of the compounds provided.
Tested on: Mtb CDC1551
Experiment Description: Depletion of intracellular ATP, Mtb on glucose
Details: read-out: ATP IC50 (W1) CDC1551, glucose media; glucose as sole carbon source; 1 week
Give bare numbers, in µM.

Smiles Code	Observation Type	Recorded Value
O=S(=O)(Nc1ccc(Cc2ccncc2)cc1)c1ccccc1	IC50	38
C[C@@H](NC(=O)c1ccc(Cc2ccncc2)cc1)c1ccccc1	IC50	19
O=S(=O)(Nc1ccc(Cc2ccncc2)cc1)c1ccc(OC(F)(F)F)cc1	IC50	19

Answer for every listed entry: what is its IC50? The entries follow.
1. O=C(Nc1ccc(Cc2ccncc2)cc1)[C@H](Cc1c[nH]c2ccccc12)NCc1ccccc1
2. C[C@@H](NC(=O)c1cccc(Cc2ccncc2)c1)c1ccccc1
3. COc1ccc(CNc2ccc(Cc3ccncc3)cc2)cc1

Reply:
19
19
4.7

###

Target Under Test: CYP126 (Mycobacterium tuberculosis)
Details: fragment 1 mM, P450 4-6 µM; relative to DMSO (418 nm)
Observation Type: Δλmax (nm) CYP126, fragment screen
Please format your answer as a value with the unit trailing.

The examples below pair each entry with its known result.
Smiles Code	Observation Type	Recorded Value
Cc1nn(-c2ccccc2)nc1C(=O)O	Δλmax (nm) CYP126, fragment screen	0 nm
O=C(O)c1ccc(-c2cccnc2)cc1	Δλmax (nm) CYP126, fragment screen	0 nm
c1ccc(-c2cc[nH]n2)cc1	Δλmax (nm) CYP126, fragment screen	0 nm
c1ccc(-c2ccn[nH]2)nc1	Δλmax (nm) CYP126, fragment screen	0 nm
c1ccc(-c2ncc[nH]2)cc1	Δλmax (nm) CYP126, fragment screen	0 nm

Could you tell me Δλmax (nm) CYP126, fragment screen for each of these compounds? They are listed below.
1. OCc1ccc(Cn2cncn2)cc1
2. COc1ncccc1C(=O)O
3. Nc1ccccn1
4. c1ccc(-c2c[nH]cn2)cc1
5. Nc1cccnc1N
6. Nc1ccncc1
7. Oc1cccnc1O

Reply:
1: 0 nm; 2: 0 nm; 3: 0 nm; 4: 1 nm; 5: 0 nm; 6: 0 nm; 7: 0 nm
